Assay: Mouse oral single-dose pharmacokinetic study
Format: in vivo
Condition: mouse, plasma; 100 mg/kg oral; Time 16 HR; Table 13; read-out: Cpd. EH (mouse plasma concentration)
Recorded Endpoint: concentration at 16 h

Task: What does the data say about its concentration at 16 h? Entry: Cc1ccc(CC(=O)O)cc1OCc1c(C)cccc1C [Compound EH]
Result: 43 µM

====

Assay: Mouse oral single-dose pharmacokinetic study
Type: in vivo
Condition: mouse plasma; 100 mg/kg single oral gavage
Recorded Endpoint: Cmax (µM)
Form entry: value (µM) — number only.

Task: For the compound Cc1ccc(CC(=O)O)cc1OCc1c(C)cccc1C , what Cmax is on record?
Result: 440

====

Assay: Mouse oral single-dose pharmacokinetic study
Type: in vivo
Condition: mouse, plasma; 100 mg/kg oral; Time 12 HR; Table 13; read-out: Cpd. EH (mouse plasma concentration)
Recorded Endpoint: concentration at 12 h (µM)
Use µM as the unit, but write only the number.

Task: Return reported concentration at 12 h; argument: Cc1ccc(CC(=O)O)cc1OCc1c(C)cccc1C
Result: 63

====

Assay: Mouse oral single-dose pharmacokinetic study
Format: in vivo
Condition: mouse, plasma; 100 mg/kg oral; Time 6 HR; Table 13; read-out: Cpd. EH (mouse plasma concentration)
Recorded Endpoint: concentration at 6 h (µM)
Entry rule: numbers only, all in µM.

Task: Find the recorded concentration at 6 h belonging to Cc1ccc(CC(=O)O)cc1OCc1c(C)cccc1C [Compound EH] and report it.
Result: 197

====

Assay: Rat oral single-dose pharmacokinetic study
Format: in vivo
Condition: male, Sprague-Dawley, rat, plasma; 100 mg/kg single oral gavage; time 4 HR; read-out: Compound EH concentration in rat plasma
Recorded Endpoint: concentration at 4 h (µM)
Please respond with the number in µM and leave the unit unwritten.

Task: // concentration at 4 h lookup, key: Cc1ccc(CC(=O)O)cc1OCc1c(C)cccc1C
Result: 126

====

Assay: Mouse oral single-dose pharmacokinetic study
Type: in vivo
Condition: mouse, plasma; 100 mg/kg oral; Time 0 HR; Table 13; read-out: Cpd. EH (mouse plasma concentration)
Recorded Endpoint: concentration at 0 h (nM)
Give the quantity in nM, number only.

Task: Reported concentration at 0 h for Cc1ccc(CC(=O)O)cc1OCc1c(C)cccc1C : what is it?
Result: 0

====

Assay: Mouse oral single-dose pharmacokinetic study
Assay type: in vivo
Condition: mouse, plasma; 100 mg/kg oral; Time 48 HR; Table 13; read-out: Cpd. EH (mouse plasma concentration)
Recorded Endpoint: concentration at 48 h (nM)
Give your result in nM as a bare value.

Task: # lookup: concentration at 48 h of Cc1ccc(CC(=O)O)cc1OCc1c(C)cccc1C
Result: 0

====

Assay: Mouse oral single-dose pharmacokinetic study
Type: in vivo
Condition: mouse, plasma; 100 mg/kg oral; Time 24 HR; Table 13; read-out: Cpd. EH (mouse plasma concentration)
Method: • 1. Mice received single oral gavage of Compound EH, 100 mg/kg, and plasma was collected at certain times. • 2. Plasma was stored at −80° C. until the day of analysis. • 3. Samples were thawed on 37° C. bath for 5 min and vortexed at top speed for 10 sec. • 4. […] All samples were run in duplicate, 210 nm and 230 nm Absorbances, Negative and Positive ionization spectrograms recorded. […]
Recorded Endpoint: concentration at 24 h (µM)
Express your answer in µM, writing the number without its unit.

Task: Fill blank: measured concentration at 24 h of the compound Cc1ccc(CC(=O)O)cc1OCc1c(C)cccc1C is ____.
Result: 22

Origin of the recorded values: patent US9115072B2
